target: UniProt G1T386
Sequence (G1T386 1-454): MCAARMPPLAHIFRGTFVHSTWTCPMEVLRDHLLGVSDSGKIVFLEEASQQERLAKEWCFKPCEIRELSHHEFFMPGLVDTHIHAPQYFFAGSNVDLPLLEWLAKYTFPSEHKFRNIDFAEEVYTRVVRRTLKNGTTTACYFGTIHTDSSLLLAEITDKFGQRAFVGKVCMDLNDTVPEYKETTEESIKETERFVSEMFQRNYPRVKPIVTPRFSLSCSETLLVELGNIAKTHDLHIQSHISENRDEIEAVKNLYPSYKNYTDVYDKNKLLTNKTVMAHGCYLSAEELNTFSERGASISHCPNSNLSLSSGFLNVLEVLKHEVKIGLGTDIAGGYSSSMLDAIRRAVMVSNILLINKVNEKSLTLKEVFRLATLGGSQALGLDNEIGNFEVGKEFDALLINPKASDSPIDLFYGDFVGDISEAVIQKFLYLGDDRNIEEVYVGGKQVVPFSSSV
pKi: −log10 of the molar value.
measuredQuantity: pKi

Lab note: COC1CNC(=O)c2nc[nH]c2N1Cc1ccccc1 (stereo not shown) gave pKi of ~5.10
